B1: C22orf15 (parent)
chain: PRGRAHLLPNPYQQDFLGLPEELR

Variants of: B1
method: protein stability index of a GFP-peptide fusion (GPS, HEK-293T) (PSI 1-6); higher = more stable;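 also: lentivirally expressed fusions sorted by FACS into six bins by GFP to DsRed ratio, PSI derived from sequencing read proportions per bin multiplied by bin number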
test.parameters: c terminus: a fixed tail appended
Is protein stability index at least 4? Then YES. If not, NO.

variant.string	qualitative.label
E21L	NO
R4Q	NO
L17F	NO
P11V	NO
P20L	NO
G18N	YES
L19Q	YES
E22V	NO
L7T	YES
F16M	YES
E22S	NO
R24Y	NO
P11D	YES
F16T	YES
P20G	NO
D15W	NO
Q13S	NO
L19M	NO
G18D	YES
L17S	YES
A5K	NO
N10D	YES
E21H	NO
R24F	NO
E22Y	NO
Q13R	NO
Q13V	NO
